Hey, just so you know, these numbers are from paper PMC10397247.

Target: T1, O9-bA
T1 chain: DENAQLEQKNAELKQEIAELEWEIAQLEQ
Assay: two-hybrid library CCNG1;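 note: natural log of median RNA to DNA barcode read ratio; higher means stronger binding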
Overview of recorded interaction score for various binders

- Binder: "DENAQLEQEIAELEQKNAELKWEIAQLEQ [O5-bA]"
  interaction score: -0.954
- Binder: "DENAQLEQEIAELEQENAELEWKIAQLKQ [O14-bA]"
  interaction score: -0.575
- Binder: "DEIAQLEQKIAELKQKNAELKWKNAQLKQ [O12-bA]"
  interaction score: 1.04
- Binder: "DEIAQLEQKIAELKQENAELEWENAQLEQ [O3-bA]"
  interaction score: -0.712
- Binder: "DKIAQLKQEIAELEQKNAELKWKNAQLKQ [O4-bA]"
  interaction score: -0.232
- Binder: "DEIAQLEQENAELEQKIAELKWENAQLEQ [O15-bA]"
  interaction score: -0.0414
- Binder: "DKNAQLKQKIAELKQKNAELKWEIAQLEQ [O13-bA]"
  interaction score: -0.882
- Binder: "DENAQLEQKNAELKQKIAELKWKIAQLKQ [O2-bA]"
  interaction score: 1
- Binder: "DKNAQLKQKIAELKQENAELEWKIAQLKQ [O6-bA]"
  interaction score: 0.339
